Data credit: ChEMBL document CHEMBL2346496

Test system: Tyrosine-protein kinase ABL1 (Homo sapiens, UniProt P00519, T315I)
Protocol: Inhibition of breakpoint cluster region-Abelson tyrosine kinase T315I mutant (unknown origin) using [gamma-33P]ATP as substrate by radiometric kinase assay
Please respond with reported IC50 for every item in the list.
Write the number in nM without appending the unit.

Q: Find the measured IC50 of COC(=O)Nc1nc2ccc(C(=O)c3cccs3)cc2[nH]1 [NOCODAZOLE] with Tyrosine-protein kinase ABL1 (Homo sapiens, UniProt P00519, T315I) as test system.
Ans: 640

Q: For Tyrosine-protein kinase ABL1 (Homo sapiens, UniProt P00519, T315I), give IC50 of the listed compound: `CCNC(=O)Nc1nc2ccc(-c3ccccc3OC)cc2s1`
Ans: 0.11

====

Protocol: Stability of the compound at 37 degC at pH 6.7 after 24 hrs by UPLC method
Format: physicochemical
Condition: buffer, read-out: Stability
Hi there, I'd appreciate the recorded remaining at 24 h for every entry that follows.
Your answer should be a plain number; it is taken to be in %.

Q: Indicate the recorded remaining at 24 h value for this molecule: `CCNC(=O)Nc1nc2ccc(-c3ccccc3OC)cc2s1`
Ans: 100

Q: State its remaining at 24 h: `COc1ccccc1-c1ccc2nc(NC(=O)NCCO)sc2c1`
Ans: 100

Q: Entry `COc1ccccc1-c1ccc2nc(NC(=O)NCCN3CCN(C)CC3)sc2c1` needs its remaining at 24 h filled in; supply it.
Ans: 99.7

====

Protocol: Aqueous solubility of the compound at pH 6.7
Assay type: physicochemical
Metric: solubility (µg/mL)
Hi! Could you send only the number? It should be in µg/mL, unit omitted.

Q: Recall and state the measured solubility for `COc1ccccc1-c1ccc2nc(NC(=O)NCCN3CCN(C)CC3)sc2c1` .
Ans: 2240

Q: Respond only with solubility recorded for `COc1ccccc1-c1ccc2nc(NC(=O)NCCO)sc2c1`
Ans: 7.49

Q: Provide solubility value for the following compound: `CCNC(=O)Nc1nc2ccc(-c3ccccc3OC)cc2s1`
Ans: 0.0227
